# TGT: Macrophage colony-stimulating factor 1 receptor (Homo sapiens)
# ASSAY_CONTEXT: at 0.1 µM
Give inhibition for every item shown.

CCCN1CCC(Oc2cc(Nc3nc(Nc4cccc(F)c4C(N)=O)c4cc[nH]c4n3)c(OC)cc2Cl)CC1 -0.53%
CCn1c(-c2nonc2N)nc2ccncc21 0.3%
CCn1c(-c2nonc2N)nc2c(C#CC(C)(C)O)nc(CN3CCCC3)cc21 -0.03%
CCn1c(-c2nonc2N)nc2cncc(C(=O)N3CCNCC3)c21 4.42%

What the record says about c1cnn2ncc(-c3ccnc(Nc4ccc5c(c4)OCCO5)n3)c2c1 : inhibition is 44.5%

---

# TGT: Ephrin type-A receptor 2 (Homo sapiens)
# ASSAY_CONTEXT: at 1 µM
Give inhibition for every item shown.
One number for each entry, in %.

COMPOUND	TGT	UNIT_ABBREVIATION	MEASURED_RESULT
Cc1nn(C)c2cc(N(C)c3ccnc(Nc4cccc(S(N)(=O)=O)c4)n3)ccc12	Ephrin type-A receptor 2 (Homo sapiens)	%	18.6

# map each compound to its inhibition
1. COc1ccc(COc2ccc(Cc3cnc(N)nc3N)cc2OC)cc1
2. CCn1c(-c2nonc2N)nc2cnc(Oc3cccc(NC(=O)c4ccc(OCCN5CCOCC5)cc4)c3)cc21

Ans:
1: 2.74; 2: -2.47

# map each compound to its inhibition
1. CS(=O)(=O)CCN(CC#N)Cc1ccc(-c2ccc3ncnc(Nc4ccc(OCc5cccc(F)c5)c(Cl)c4)c3c2)o1
2. O=C1NC(=O)C(c2ccc(Cl)cc2)=C1Nc1ccc(Cl)c(C(=O)O)c1
3. CC(=O)Nc1cccc(C#Cc2cncnc2Nc2ccc(OCc3cccc(F)c3)c(Cl)c2)n1

Ans:
1. -5.32
2. -1.26
3. 1.53

# map each compound to its inhibition
1. CS(=O)(=O)Nc1ccc(N/C=C2\C(=O)Nc3ccccc32)cc1
2. O=C1NC(=O)C(c2ccccc2Cl)=C1Nc1cccc(O)c1
3. CNC(=O)c1cncc(/C=C/c2c(Cl)cccc2Cl)c1
4. Cc1cccc(-c2n[nH]cc2-c2ccc3ncccc3n2)n1
5. COc1ccc(-c2nn3ncccc3c2-c2ccnc(Nc3ccc(Cl)c(C(F)(F)F)c3)n2)cc1
6. CCn1c(-c2nonc2N)nc2cncc(C(=O)N3CC[C@H](N)C3)c21
7. COc1ccc(-c2ccncc2)cc1C(N)=O

Ans:
[-1.5, 1.5, 17.3, -2.51, 0.97, -0.49, 0.98]

# map each compound to its inhibition
1. COc1cc2ncn(-c3cc(OCc4ccccc4Cl)c(C(N)=O)s3)c2cc1OC
2. CC1=C(C(=O)Nc2ccc3[nH]ncc3c2)C(c2ccc(Cl)c(Cl)c2)CC(=O)N1 (stereo not given)

Ans:
-1.31
0.57

---

# TGT: Receptor-type tyrosine-protein kinase FLT3 (Homo sapiens)
# ASSAY_CONTEXT: at 0.1 µM
Give inhibition for every item shown.
One number for each entry, in %.

NS(=O)(=O)c1ccc(N/N=C2\C(=O)Nc3ccc(C(=O)NCCc4c[nH]cn4)cc32)cc1 7.03
O=C(Nc1n[nH]c2nc(-c3ccco3)c(Br)cc12)C1CC1 1.23
CCc1cccc(NC(=O)Nc2ccc(Oc3ccc4nc(NC(=O)OC)[nH]c4c3)cc2)c1 37.4
CCn1c(-c2nonc2N)nc2c(N3CCCC3)nccc21 -0.78

What the record says about [O-][S+]1CCN(Cc2ccc(-c3ccc4ncnc(Nc5ccc(OCc6ccccc6)c(F)c5)c4c3)o2)CC1 : inhibition is -0.1

---

# TGT: Glycogen synthase kinase-3 alpha (Homo sapiens)
# ASSAY_CONTEXT: at 1 µM
MEASURED_ENDPOINT: inhibition (%)
Answers are plain numbers, in %.

COMPOUND	TGT	inhibition / %
NS(=O)(=O)c1ccc(N/N=C2\C(=O)Nc3ccc(C(=O)NCCc4c[nH]cn4)cc32)cc1	Glycogen synthase kinase-3 alpha (Homo sapiens)	86.8
COc1ccccc1Nc1ncc(-c2ccccc2)o1	Glycogen synthase kinase-3 alpha (Homo sapiens)	3.92
Cc1cccc(-c2n[nH]cc2-c2ccc3ncccc3n2)n1	Glycogen synthase kinase-3 alpha (Homo sapiens)	1.15
CCCN1CCC(Oc2cc(Nc3nc(Nc4cccc(F)c4C(N)=O)c4cc[nH]c4n3)c(OC)cc2Cl)CC1	Glycogen synthase kinase-3 alpha (Homo sapiens)	9.53
COc1cccc(-n2ncc3c(N/N=C/c4cccc(F)c4)ncnc32)c1	Glycogen synthase kinase-3 alpha (Homo sapiens)	75.2

# map each compound to its inhibition
1. Nc1nc(-c2ccc3c(c2)C(=Cc2cc(Br)c(O)c(Br)c2)C(=O)N3)cs1
2. CS(=O)(=O)CCNCc1ccc(-c2ccc3ncnc(Nc4ccc(OCc5cccc(F)c5)c(C(F)(F)F)c4)c3c2)o1
3. CCCN1CCC=C(c2ccc(Nc3nc(Nc4ccccc4C(N)=O)c4cc[nH]c4n3)c(C)c2)C1
4. NC(=O)c1cccc(Nc2nccc(Nc3cccc4[nH]ncc34)n2)c1
5. COc1cc2ncn(-c3cc(O[C@@H](C)c4ccccc4Cl)c(C(N)=O)s3)c2cc1OC
6. COc1ccc2cc(-c3c(-c4ccncc4)nc(-c4ccc([S+](C)[O-])cc4)n3C)ccc2c1 (stereo not given)
7. COc1ccc(-c2nn3ncccc3c2-c2ccnc(Nc3ccc(Cl)c(C(F)(F)F)c3)n2)cc1
8. CN(C)c1cc2c(Nc3ccc4nc(Cc5ccccc5)[nH]c4c3)ncnc2cn1

Ans:
1. 4.94
2. 0.2
3. 28.1
4. 42.1
5. 6.38
6. 11.5
7. 3.98
8. 4.97

# map each compound to its inhibition
1. CS(=O)(=O)CCNCc1nc(-c2ccc3ncnc(Nc4ccc(F)c(Cl)c4)c3c2)cs1
2. CN1CCC(C(=O)Nc2n[nH]c3nnc(-c4ccccc4)cc23)CC1
3. Cc1nnc(-c2ccc(C)c(-c3ccc(C(=O)Nc4cccc(C#N)c4)cc3)c2)o1
4. COC(=O)Nc1nc2cc(Oc3cccc(NC(=O)Nc4cc(C(F)(F)F)ccc4F)c3)ccc2[nH]1
5. COc1cc2ncn(-c3cc(OCc4ccccc4Cl)c(C(N)=O)s3)c2cc1OC
6. CCN1CCC(CC(=O)Nc2n[nH]c3nc(-c4cccs4)c(Br)cc23)CC1
7. [O-][S+]1CCN(Cc2ccc(-c3ccc4ncnc(Nc5ccc(OCc6ccccc6)c(F)c5)c4c3)o2)CC1

Ans:
1: 3.03; 2: 85.7; 3: 4.82; 4: 7.54; 5: 9.18; 6: 78.3; 7: 2.88

---

# TGT: MAP/microtubule affinity-regulating kinase 3 (Homo sapiens) (UniProt P27448)
# Sequence (P27448 whole entry, looked up): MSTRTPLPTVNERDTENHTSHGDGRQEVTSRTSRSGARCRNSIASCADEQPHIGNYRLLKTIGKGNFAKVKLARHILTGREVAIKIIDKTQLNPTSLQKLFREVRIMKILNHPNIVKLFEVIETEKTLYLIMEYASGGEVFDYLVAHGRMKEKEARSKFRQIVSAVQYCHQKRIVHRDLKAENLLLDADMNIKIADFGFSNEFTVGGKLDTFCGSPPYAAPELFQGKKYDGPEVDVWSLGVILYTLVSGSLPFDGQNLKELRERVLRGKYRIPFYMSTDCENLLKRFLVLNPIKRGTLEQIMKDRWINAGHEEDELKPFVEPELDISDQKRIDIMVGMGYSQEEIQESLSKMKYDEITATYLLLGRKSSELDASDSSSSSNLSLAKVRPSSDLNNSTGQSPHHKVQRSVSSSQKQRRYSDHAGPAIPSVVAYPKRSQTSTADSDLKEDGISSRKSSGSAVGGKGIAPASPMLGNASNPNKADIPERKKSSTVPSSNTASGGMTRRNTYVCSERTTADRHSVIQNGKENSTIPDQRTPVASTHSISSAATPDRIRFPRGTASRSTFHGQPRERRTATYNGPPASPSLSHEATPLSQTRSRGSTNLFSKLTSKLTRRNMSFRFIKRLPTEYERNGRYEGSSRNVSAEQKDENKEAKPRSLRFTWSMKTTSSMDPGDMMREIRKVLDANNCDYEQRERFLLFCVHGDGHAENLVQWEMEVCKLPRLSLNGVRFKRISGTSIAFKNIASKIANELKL
# ASSAY_CONTEXT: at 0.1 µM
So basically, the class depends on measured inhibition, and the ranges are group A = under 2%, group B = from 2% up to 3%, group C = 3% and over

Please review the following examples before continuing.
COMPOUND	CATEGORY
Nc1nc(-c2ccccn2)c(-c2ccc3ncccc3n2)s1	group B
NS(=O)(=O)c1cccc(-c2ccc3c(NC(=O)C4CC4)n[nH]c3c2)c1	group B
CC1=C(C(=O)Nc2ccc3[nH]ncc3c2)C(c2ccc(F)cc2)NC(=O)N1 (centres undefined)	group A
CNC(=O)c1cncc(/C=C/c2c(Cl)cccc2Cl)c1	group A
O=C1NC(=O)C(c2ccccc2Cl)=C1Nc1cccc(O)c1	group A

Q: Into which category would you place Nc1ncnc2occ(-c3ccc(NC(=O)Nc4cc(C(F)(F)F)cc(C(F)(F)F)c4)cc3)c12 ?
Ans: group C

Q: Into which category would you place COC(=O)Nc1nc2cc(Oc3cccc(NC(=O)Nc4cc(C(F)(F)F)ccc4F)c3)ccc2[nH]1 ?
Ans: group A

Q: Into which category would you place COc1cc2ncn(-c3cc(OCc4ccccc4C(F)(F)F)c(C(N)=O)s3)c2cc1OC ?
Ans: group C

Q: Into which category would you place CCn1c(-c2nonc2N)nc2cncc(C(=O)N3CCNCC3)c21 ?
Ans: group C

Q: Into which category would you place CC(=O)Nc1cccc(C#Cc2cncnc2Nc2ccc(OCc3cccc(F)c3)c(Cl)c2)n1 ?
Ans: group A

Q: Into which category would you place CS(=O)(=O)CCNCc1ccc(-c2ccc3ncnc(Nc4ccc(OCc5ccccc5)c(Cl)c4)c3c2)o1 ?
Ans: group A

Q: Into which category would you place COc1ccc(COc2ccc(Cc3cnc(N)nc3N)cc2OC)cc1 ?
Ans: group C

Q: Into which category would you place Cc1ccc(NC(=O)c2ccnc(N3CCCC3)c2)cc1-c1ccc(C(=O)NCC2CC2)cc1 ?
Ans: group C

---

Give inhibition for every item shown.
# TGT: Serine/threonine-protein kinase pim-2 (Homo sapiens)
# ASSAY_CONTEXT: at 1 µM
Give bare numbers, in %.

Field: example entries. Status: answers known.
MOLECULE	MEASURED_ENDPOINT	UNIT_ABBREVIATION	MEASURED_RESULT
Nc1nc(-c2ccccn2)c(-c2ccc3ncccc3n2)s1	inhibition	%	0.01
c1cnn2ncc(-c3ccnc(Nc4ccc5c(c4)OCCO5)n3)c2c1	inhibition	%	4.39
CCn1c(-c2nonc2N)nc2c(C#CC(C)(C)O)nc(CN3CCCC3)cc21	inhibition	%	1.6

# map each molecule to its inhibition
1. COc1cc2c(cc1Nc1nc(N3CCc4ccccc43)c3cc[nH]c3n1)N(C(=O)CN(C)C)CC2
2. Cc1ccc(NC(=O)c2ccnc(N3CCCC3)c2)cc1-c1ccc(C(=O)NCC2CC2)cc1
3. Cc1cc(O)cc(C)c1/C=C/c1cncc(-c2nn[nH]n2)c1
4. COc1ccc2cc(-c3c(-c4ccncc4)nc(-c4ccc([S+](C)[O-])cc4)n3C)ccc2c1 (configuration not stated)
5. Cc1nn(C)c2cc(N(C)c3ccnc(Nc4cccc(S(N)(=O)=O)c4)n3)ccc12
6. NS(=O)(=O)c1cccc(-c2ccc3c(NC(=O)C4CC4)n[nH]c3c2)c1
7. O=C1NC(=O)C(c2cccc(Cl)c2)=C1Nc1ccc(O)c(Cl)c1

Ans:
0.38
-1.68
-2.91
0.99
0.81
0.35
1.76

# map each molecule to its inhibition
1. NS(=O)(=O)c1ccc(N/N=C2\C(=O)Nc3ccc(C(=O)NCCc4c[nH]cn4)cc32)cc1
2. O=C1Nc2ccc(C(=O)c3ccco3)cc2C1=Cc1cc(Cl)c(O)c(Cl)c1

Ans:
[24.7, 17.9]

Origin of measurements: ChEMBL document CHEMBL1961873
